Consider the following molecules; for each one, report its TGI.
- Tested on: UACC-62 melanoma
- assay.protocol: NCI tumour cell line growth inhibition, 48 h

Some molecules with recorded TGI:
In [3]: df
Out[3]:
                                   molecule  measure   reading
0  Oc1c(CN2CCCC2)cc(COCc2ccc(Br)cc2)c2cccnc12      TGI   1.72 µM
1  COc1ccc2nc3cc(Cl)ccc3c(N3CCN(c4ccnc(N5CCOCC5)n4)CC3)c2c1      TGI  > 100 µM
2  O=C(CSC(c1ccccc1)c1ccccc1)N/N=C/c1cccc(Cl)c1      TGI   30.3 µM
3  O=C(O)c1ccccc1CC1Cc2ccc3c(c2C1=O)CCC3 (stereo not given)      TGI  > 100 µM
4  CN(N=O)C(=O)N[C@@H](C=O)[C@@H](O)[C@H](O)[C@H](O)CO      TGI  > 750 µM
5                     NC(=S)Nc1cc(Cl)ccc1Cl      TGI  > 100 µM

Could you report TGI for every entry in the following list?
1. CN1C(=O)N/C(=C\c2ccc(S(=O)(=O)N/N=C\C(O)C(O)C(O)CO)cc2)C1=O (stereo not given)
2. N#C/C(=C\c1ccc(O)c(O)c1)C(=O)NC1CCC(CC2CCC(NC(=O)/C(C#N)=C/c3ccc(O)c(O)c3)CC2)CC1 (stereo not given)
3. O=C1C(Cl)=C(N2C(=O)CCCC2=O)C(=O)c2ccccc21
4. O=c1oc2nc(-c3ccccc3)cc(C(F)(F)F)c2n1Cc1ccccc1

-- reply
> 100 µM
3.07 µM
37.4 µM
> 100 µM

###

- Test system: MALME-3M melanoma
- assay.protocol: NCI tumour cell line growth inhibition, 48 h
Where a SMILES comes first, the peptide text is derived from it. The star is where a group is joined. Pentanoyl = CCCCC(=O)*; Boc = CC(C)(C)OC(=O)*
Consider the following compounds; for each one, report its TGI.

compound	reading
OCC1OC(OCC(O)C(O)C(O)C(/C=N/Nc2ccccc2)=N/Nc2ccccc2)C(O)C(O)C1O (configuration not stated)	> 100 µM

Could you report TGI for every entry in the following list?
1. COc1cc(/C=C/C(=O)OCCc2ccccc2)ccc1O
2. O=[N+]([O-])c1ccc2c(c1)Nc1c3ccccc3nc3cccc-2c13
3. CC(C)OC(=O)C1=C(O)c2ccccc2S(=O)(=O)N1
4. CN(C)c1ccc(/C=C2\N=C(c3ccc([N+](=O)[O-])cc3)OC2=O)cc1

-- reply
31.7 µM
19.4 µM
> 100 µM
> 100 µM

Could you report TGI for every entry in the following list?
1. CCn1c(-c2ccc(F)cc2)nc2c1C(=O)c1ccccc1C2=O
2. CC1(C)OC(C[C@]2(C#N)C[C@H](CCl)OC(C)(C)O2)C[C@@H](C[C@]2(C#N)C[C@H](CCl)OC(C)(C)O2)O1 (some centres not stated)
3. Cc1noc(C)c1-c1cc(O)cc(C(O)c2ccccc2)c1 (configuration not stated)
4. O=C(O)CCSCc1ccc(I)cc1
5. N#Cc1ccc(N2Cc3ccccc3OC3=C2C(=O)c2c(O)ccc(O)c2C3=O)cc1

-- reply
> 100 µM
> 100 µM
> 100 µM
> 100 µM
0.264 µM

Could you report TGI for every entry in the following list?
1. CC(O)C(N=Cc1nc(-c2ccccc2)oc1O)C(=O)O (configuration not stated)
2. O=C1N(c2ccccc2)C(=O)C2(SC=NN2Cc2ccccc2)N1c1ccccc1 (configuration not stated)
3. COc1ccc2nc3cc(Cl)ccc3c(N3CCN(c4ccnc(N5CCOCC5)n4)CC3)c2c1
4. CCCCC(=O)Oc1ccc(CC(NC(=O)OC(C)(C)C)C(=O)NC(C)C(=O)NC(Cc2ccccc2)C(=O)NCC(N)=O)cc1 (configuration not stated) (Boc-Y(Pentanoyl)AFG-NH2; configuration not given here)
5. O=C(CN1CCN(c2ccc(Cl)cc2)CC1)N1CCN(c2nnc(-c3ccc(Cl)cc3)c(-c3ccc(Cl)cc3)n2)CC1

-- reply
1. > 100 µM
2. > 100 µM
3. > 100 µM
4. > 100 µM
5. > 100 µM

###

- System: CCRF-CEM leukemia
- assay.protocol: NCI tumour cell line growth inhibition, 48 h
measure: TGI

Could you report TGI for every entry in the following list?
1. Cc1cnc(-c2c[nH]c3ccccc23)nc1-c1c[nH]c2ccccc12
2. O=C(Nc1ccc(Cl)cc1F)c1cc(I)ccc1O
3. COCc1cc2c(cc1/C(=C/[N+](=O)[O-])CS(=O)(=O)c1ccccc1)OCO2

-- reply
1: 4.92 µM; 2: 9.77 µM; 3: > 100 µM

Could you report TGI for every entry in the following list?
1. CCOC(=O)/C=C/c1cc2cc(-c3csc4ccccc34)ccc2[nH]1
2. CC1CCC(O)(C(C)(C(=O)O)c2ccccc2)CC1 (stereo not drawn)
3. COc1ccc(N=Nc2c(-c3ccccc3)nn(C(=O)CC(=O)Nc3cccc(Cl)c3)c2-c2ccccc2)cc1
4. C/C1=C/C2=CC(C)C[C@@H]2C(=O)[C@]2(C)C(=O)CC(C)(C)[C@H]2CC1=O (stereo partly drawn)

-- reply
["11.4 µM", "> 100 µM", "> 100 µM", "> 50 µM"]

Could you report TGI for every entry in the following list?
1. CCCCCC(=O)Nc1nc[nH]c1C(N)=O
2. O=C1Nc2ccccc2S/C1=C\c1cccc(C(F)(F)F)c1
3. O=C1C(c2c(O)[nH]c3ccc(S(=O)(=O)O)cc23)=Nc2ccc(Br)cc21
4. CCN(CC)CCCNc1nc(=O)[nH]c(C)c1C(=O)Nc1c2ccccc2nc2ccccc12
5. O=C(c1ccc2ccccc2c1)N(Cc1cccnc1)C(=S)N(Cc1cccnc1)C(=O)c1ccc2ccccc2c1

-- reply
1: > 100 µM; 2: > 100 µM; 3: > 100 µM; 4: > 100 µM; 5: > 100 µM

###

- System: M14 melanoma
- assay.protocol: NCI tumour cell line growth inhibition, 48 h
measure: GI50

Some compounds with recorded GI50:
>>> df
                                        smi      reading
0  COc1ccc2nc3cc(Cl)ccc3c(N3CCN(c4ccnc(N5CCOCC5)n4)CC3)c2c1  > 100000 nM
1  Cc1cc(C2=NNC(=O)Cc3cc4c(cc32)OCCO4)cc(C)c1N      2170 nM
2  O=C(Nc1cccc(Oc2nnc(Cl)c3ccccc23)c1)Nc1ccc(Cl)c(C(F)(F)F)c1       707 nM

Shift focus to the following entry.
The reported M14 melanoma GI50 of `O=C(CSC(c1ccccc1)c1ccccc1)N/N=C/c1cccc(Cl)c1` is 15300 nM

###

- Test system: OVCAR-3 ovarian
- assay.protocol: NCI tumour cell line growth inhibition, 48 h
Consider the following compounds; for each one, report its TGI.

                                   compound   reading
0  CC(=O)O[C@H]1CC[C@@]2(C)C(=CC[C@@H]3[C@@H]2CC[C@]2(C)Nc4c(cnn4S(C)(=O)=O)C[C@@H]32)C1  > 100 µM

Could you report TGI for every entry in the following list?
1. N/C(=N\N=C\c1c[nH]c2cc(C(F)(F)F)ccc2c1=O)NO
2. O=C(CCCN1CCC2(CC1)NC(=O)c1ccccc1O2)c1ccc(F)cc1
3. CCOC(=O)C(C)(C(=O)OCC)/C(Cl)=C\Cl
4. Cn1cc(C2=C(c3cccnc3)C(=O)NC2=O)c2ccccc21
5. O=C1C(C(c2ccccc2)N2CCOCC2)=C(O)C(c2ccccc2)N1c1ccccc1 (stereo unspecified)

-- reply
1: > 10 µM; 2: > 100 µM; 3: > 100 µM; 4: > 25 µM; 5: > 10 µM

###

- Tested on: COLO 205 colon
- assay.protocol: NCI tumour cell line growth inhibition, 48 h
measure: TGI

Some molecules with recorded TGI:
molecule	experimental.system	TGI
O=C(O)c1ccccc1CC1Cc2ccc3c(c2C1=O)CCC3 (configuration not stated)	COLO 205 colon	> 100 µM
O=C(Nc1ccc(Cl)cc1F)c1cc(I)ccc1O	COLO 205 colon	17.5 µM
CC(=O)OC[C@@H]1[C@H]2CC[C@]3(C)[C@@H](OC(C)=O)CC[C@H]3[C@@H]2CC[C@H]1C1(C)SCCS1	COLO 205 colon	> 25 µM
Cc1cc2c(cc1C)[n+](=O)c(C#N)c(Cl)n2[O-]	COLO 205 colon	21.7 µM
CC/C(=C(/CC)c1ccc([O-])cc1)c1ccc([O-])cc1.CC/C(=C(\CC)c1ccc([O-])cc1)c1ccc([O-])cc1.O=C([CH-]C(=O)c1ccccc1)c1ccccc1.O=C([CH-]C(=O)c1ccccc1)c1ccccc1.O=C([CH-]C(=O)c1ccccc1)c1ccccc1.O=C([CH-]C(=O)c1ccccc1)c1ccccc1.[Ti+4].[Ti+4]	COLO 205 colon	> 100 µM
Cn1cc(C2=C(c3cccnc3)C(=O)NC2=O)c2ccccc21	COLO 205 colon	> 25 µM
C/C(=N\N=C(\[Se])N1CCN(c2ccccn2)CC1)c1ccccn1	COLO 205 colon	0.0358 µM
O=c1ssc(Cl)c1Nc1c(Cl)ssc1=O	COLO 205 colon	31.5 µM

Could you report TGI for every entry in the following list?
1. CCC(=O)N1NC(=O)C(CC)(CC)C1=O
2. C=CCn1c(C23CC4CC(CC(C4)C2)C3)n[nH]c1=S
3. O=C(CCl)NC(Cc1ccc(F)cc1)C(=O)O (configuration not stated)
4. Cc1n[nH]c(=O)n1/N=C/c1cccs1

-- reply
> 100 µM
> 100 µM
> 100 µM
> 100 µM
